B1: HEEH_KT_rd6_0007 (parent)
chain: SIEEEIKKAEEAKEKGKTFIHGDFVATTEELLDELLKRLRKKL

Variants of: B1
method_summary: folding stability dG (cDNA display proteolysis); higher = more stable
measurement_setup: PBS, room temperature
Cut-off 1 kcal/mol on folding stability dG, inclusive. At or above means 1; below means 0.

Qu. State whether the measured folding stability dG reaches 1 kcal/mol, counting equality as reaching it, for SIEEEIKKAEECKEKGKTFIHGDFVATTEELLDELLKRLRKKL [A12C]
Ans. 1

Qu. Is folding stability dG for SIEEEIKKAEEAKEKGKTFIFGDFVATTEELLDELLKRLRKKL [H21F] at or above 1 kcal/mol?
Ans. 1

Qu. Say whether SIREEIKKAEEAKEKGKTFIHGDFVATTEELLDELLKRLRKKL [E3R] shows folding stability dG of 1 kcal/mol or more.
Ans. 1

Qu. Is folding stability dG at least 1 kcal/mol? Consider SIEEEIKKAENAKEKGKTFIHGDFVATTEELLDELLKRLRKKL [E11N]
Ans. 0

Qu. Say whether SINEEIKKAEEAKEKGKTFIHGDFVATTEELLDELLKRLRKKL [E3N] shows folding stability dG of 1 kcal/mol or more.
Ans. 0

Qu. Reported folding stability dG at or above 1 kcal/mol? SIEEEIKKAEEAKEKGKTFIHGDFVATTEELLDELLKRLRKFL [K42F]
Ans. 1

Qu. # bool: folding stability dG of SIEEEIKKAEEAKEKGKTFIHGDFVATTEELLDELLKRLRKWL [K42W] >= 1 kcal/mol
Ans. 1

Qu. Hello, I need to know if SIEEEIKKAEEAKEKGKTFIHGDFVATTEELLDELLKRTRKKL [L39T] has measured folding stability dG not below 1 kcal/mol. Thanks!
Ans. 0

Qu. Is the recorded value of folding stability dG equal to or greater than 1 kcal/mol for this variant? SIEEEIAKAEEAKEKGKTFIHGDFVATTEELLDELLKRLRKKL [K7A]
Ans. 1

Qu. Is reported folding stability dG greater than or equal to 1 kcal/mol here: SIEEEIKKAEEAKEKGKTFIHGDFVATTEELLDELIKRLRKKL [L36I]
Ans. 1

Qu. Reported folding stability dG reaches at least 1 kcal/mol for HIEEEIKKAEEAKEKGKTFIHGDFVATTEELLDELLKRLRKKL [S1H] ?
Ans. 1

Qu. State whether the measured folding stability dG reaches 1 kcal/mol, counting equality as reaching it, for SIEEEIKKWEEAKEKGKTFIHGDFVATTEELLDELLKRLRKKL [A9W]
Ans. 0

Qu. Is the recorded value of folding stability dG equal to or greater than 1 kcal/mol for this variant? SIEEEIKKAEEAKEKGKTFIHGDFVATTEELLDELLKALRKKL [R38A]
Ans. 1

Qu. Could you tell me if the measured folding stability dG of SIEEEIKKHEEAKEKGKTFIHGDFVATTEELLDELLKRLRKKL [A9H] reaches 1 kcal/mol or more?
Ans. 0

Qu. Please check the record SIEEEIKKAEEAKEKGKTFIHGDFVATTEELLDELGKRLRKKL [L36G] and state if its folding stability dG is at or above 1 kcal/mol.
Ans. 0

Qu. Is folding stability dG for SIEEEIKKAEEAKEKGKTFIHGDFVATTEELLDELVKRLRKKL [L36V] at or above 1 kcal/mol?
Ans. 0

Qu. Record SIEEEIKKAEEAKEKGKTFIHGDFVATTEELLDELLKRLRKGL [K42G] ; criterion: folding stability dG no lower than 1 kcal/mol. Met?
Ans. 0

Qu. Is folding stability dG at least 1 kcal/mol? Consider SIEEEIKKAEEAKEKGKTFIHGDFVATTEELLHELLKRLRKKL [D33H]
Ans. 1

Qu. Please indicate if the recorded folding stability dG for SIEEEIKKAEEAKYKGKTFIHGDFVATTEELLDELLKRLRKKL [E14Y] meets or exceeds 1 kcal/mol.
Ans. 1

Qu. Textbook exercise: given the entry SIEEEIKKAEEAKEKGKTFIHGDFVATTEELLDELLKRLGKKL [R40G] , state whether its folding stability dG is greater than or equal to 1 kcal/mol.
Ans. 0

Qu. Please check the record SIEEEIKKAEEAKEKGDTFIHGDFVATTEELLDELLKRLRKKL [K17D] and state if its folding stability dG is at or above 1 kcal/mol.
Ans. 1

Qu. Form field: folding stability dG at least 1 kcal/mol? Entry: SIPEEIKKAEEAKEKGKTFIHGDFVATTEELLDELLKRLRKKL [E3P]
Ans. 0

Qu. Threshold query (folding stability dG >= 1 kcal/mol) on SIEEEIKKAEEAKEKGQTFIHGDFVATTEELLDELLKRLRKKL [K17Q]
Ans. 1

Qu. Threshold query (folding stability dG >= 1 kcal/mol) on SIEEEIKKAEEAKEKGKTFIHGVFVATTEELLDELLKRLRKKL [D23V]
Ans. 1

Qu. Entry SIEEEIKKAEEAKEKGKTFIHGDFVATTEELIDELLKRLRKKL [L32I] : is its folding stability dG no less than 1 kcal/mol?
Ans. 1

Qu. Decide: is the reported value of folding stability dG for SIEEEIKKAEEAKEKGKTFIHGDFVATTWELLDELLKRLRKKL [E29W] equal to or greater than 1 kcal/mol?
Ans. 1

Qu. # bool: folding stability dG of SIEEEIKKAEEAKEKGKTFIHGDFVATTEELLDELLMRLRKKL [K37M] >= 1 kcal/mol
Ans. 1

Qu. Hi team, for SIEEEIKKAEEAKETGKTFIHGDFVATTEELLDELLKRLRKKL [K15T] , is the recorded folding stability dG at or above 1 kcal/mol?
Ans. 1

Qu. Does folding stability dG meet or surpass 1 kcal/mol for SIEEEIKKAEEACEKGKTFIHGDFVATTEELLDELLKRLRKKL [K13C] ?
Ans. 1

Qu. Check the entry SIEEEIKKAQEAKEKGKTFIHGDFVATTEELLDELLKRLRKKL [E10Q] : does folding stability dG equal or exceed 1 kcal/mol?
Ans. 1

Qu. Reported folding stability dG reaches at least 1 kcal/mol for SIEEEIKKAEEAKEKGKTFIHGDFVATTEELLDELLQRLRKKL [K37Q] ?
Ans. 1

Qu. Is folding stability dG at least 1 kcal/mol? Consider SIEEEIKKAEEAKIKGKTFIHGDFVATTEELLDELLKRLRKKL [E14I]
Ans. 1

Qu. State whether the measured folding stability dG reaches 1 kcal/mol, counting equality as reaching it, for SIEEEIKKAEEAKEKGSTFIHGDFVATTEELLDELLKRLRKKL [K17S]
Ans. 1

Qu. Exam item: decide whether the reported folding stability dG for SIEEEIKKTEEAKEKGKTFIHGDFVATTEELLDELLKRLRKKL [A9T] is at least 1 kcal/mol.
Ans. 0

Qu. Decide: folding stability dG of SIEESIKKAEEAKEKGKTFIHGDFVATTEELLDELLKRLRKKL [E5S] >= 1 kcal/mol?
Ans. 1

Qu. Please tell me: is the variant SIEEEIKKAEEAKEKGKTFIHGDFVATTYELLDELLKRLRKKL [E29Y] at or over 1 kcal/mol in terms of folding stability dG?
Ans. 1

Qu. Hi team, for SIEEEIKQAEEAKEKGKTFIHGDFVATTEELLDELLKRLRKKL [K8Q] , is the recorded folding stability dG at or above 1 kcal/mol?
Ans. 1

Qu. Is the recorded value of folding stability dG equal to or greater than 1 kcal/mol for this variant? SIEEEIKKAEEAKEKGKTFIHGDGVATTEELLDELLKRLRKKL [F24G]
Ans. 0

Qu. Is folding stability dG for SIEEEIKKAEEIKEKGKTFIHGDFVATTEELLDELLKRLRKKL [A12I] at or above 1 kcal/mol?
Ans. 0

Qu. Is folding stability dG at least 1 kcal/mol? Consider SIEEEIKKAEENKEKGKTFIHGDFVATTEELLDELLKRLRKKL [A12N]
Ans. 0

Qu. Decide: is the reported value of folding stability dG for SIEEEIKIAEEAKEKGKTFIHGDFVATTEELLDELLKRLRKKL [K8I] equal to or greater than 1 kcal/mol?
Ans. 0

Qu. Answer whether folding stability dG of SIEEEIKKAEEAKEKGKTFIHGDFVATTEELLDELSKRLRKKL [L36S] is greater than or equal to 1 kcal/mol.
Ans. 0

Qu. Could you tell me if the measured folding stability dG of SIEEEIKKAEEAKEKGKTFIKGDFVATTEELLDELLKRLRKKL [H21K] reaches 1 kcal/mol or more?
Ans. 0
